Tested on: A549/ATCC NSCLC
TEST NAME: NCI-60 one-dose screen, 48 h (100 = growth as untreated, 0 = no growth, -100 = all killed)
EXPERIMENTAL CONDITIONS: 10 µM unless noted
The panel holds about 83,000 compounds, 20% with a hit somewhere; the sample as a whole holds those more often.
Consider the following molecules and their measured growth readings.

| COMPOUND STRUCTURE | growth / % |
| --- | --- |
| C[C@H]1[C@H](C)CC[C@]2(CO)CC[C@]3(C)C(=CC[C@@H]4[C@@]5(C)CCCNC(C)(C)[C@@H]5CC[C@]43C)[C@H]12 | 12 |
| Cc1ccccc1CNc1ccc(N2CCOCC2)cc1 | 103 |
| O=C(Nc1ccc2ncnc(Nc3ccc(Oc4cccc(F)c4)c(Cl)c3)c2c1)c1ccc(CN2CCOCC2)cc1 | 33.6 |
| NC(=S)N/N=C(\c1ccc(Cl)cc1)C1CC1 | 92.5 |
| Cc1ccc(S(=O)(=O)Nc2ccc(Cl)cc2)cc1 | 94 |
| CCOC(=O)c1c(O)cc(-c2ccccc2)cc1-c1sc(N(C)Cc2ccccc2)nc1Cl | 98.8 |
| O=C1c2ccccc2-c2c1c1c(NCCCO)nc3ccccc3c1n2Cc1ccccc1 | 16 |
| O=C1Nc2c(ccc(Cl)c2Cl)/C1=C/c1ccc(O)cc1 | 35.7 |
| CCOC(=O)c1c(SC)nn(-c2cc(=O)[nH]c3ccc(Br)cc23)c1N | 98.1 |
| COc1ccc(C(=O)c2cc3c(N)c(C(=O)Nc4cccc5ccccc45)sc3nc2C)cc1 | 17.6 |
